Tested on: HCC-2998 colon
Experiment: NCI tumour cell line growth inhibition, 48 h
// values below are reported TGI

COMPOUND	TGI
OCCN(CCO)c1nc(N2CCCCC2)c2nc(N(CCO)CCO)nc(N3CCCCC3)c2n1	36.4 µM
CSc1ccc2c(cc1=O)C(NC(=O)c1ccccc1)CCc1cc(O)c(O)c(O)c1-2 (stereo not drawn)	36.2 µM
COc1ccc2c(=O)c3c([nH]c2c1)OCC3=O	> 100 µM
CCCS(=O)(=O)Nc1cccc(Nc2ncnc3cc(NC(=O)CCl)ccc23)c1Cl	10.6 µM
Cc1cccc2c(NCCN(C)C)c3cccc(C(=O)NCCN(C)C)c3nc12	1.33 µM
CCCCc1n(Cc2ccc3ccccc3n2)cc[n+]1Cc1ccc2ccccc2n1	10.4 µM
N#CC1(N2CCCC2)CCC2(CC1)OCCO2	> 100 µM
COc1ccc(-c2cc(=O)c3cc(C)c(C)c(C(=O)O)c3o2)cc1	> 100 µM
FC(F)(F)c1cc(NC(=S)N2c3ccccc3-n3cccc3C2c2cccnc2)cc(C(F)(F)F)c1 (stereo not drawn)	19 µM
Cc1[nH]c2ccccc2c1C1=NO/C(=N\O)C(c2c(C)[nH]c3ccccc23)C1 (stereo not drawn)	> 100 µM
Cc1ccc2[nH]c(C(=O)NN3C(=O)C(C)SC34CCC(C)CC4)c(-c3ccccc3)c2c1 (stereo not drawn)	31.7 µM
CC1=C2[C@@H](CC1)[C@]1(C)O[C@@](C(C)C)(C[C@H]1OC(=O)CO)[C@H]2OC(=O)CCCc1ccccc1	24.6 µM
O=C(c1ccc2ccccc2c1)c1c(C(F)(F)F)n([O-])c2cc(C(F)(F)F)ccc2[n+]1=O	3.37 µM
CCn1c(SCC(=O)Nc2cc(C(F)(F)F)ccc2Cl)nc2ccccc2c1=O	> 100 µM
C#Cc1cccc(NC(=O)c2cccc(NC(=O)CCl)c2)c1	> 82.5 µM
CC(=O)[CH-]C(C)=O.CC(=O)[CH-]C(C)=O.[Cl-].[O]=[V]	> 100 µM
CCC[CH2][Sn]1([CH2]CCC)[O]CC[S]1	2.26 µM
COc1cc2c(c(OC)c1OC)-c1c(c3ccc([N+](=O)[O-])cc3c(=O)n1CCCBr)C2=O	> 100 µM
N#CC(C(=O)CCC(=O)Nc1cccc(C(F)(F)F)c1)c1ccccc1 (stereo not drawn)	> 100 µM
O=C(C=Nc1ccccc1S)c1ccco1	36.6 µM
CS(=O)(=O)NNS(=O)(=O)c1ccc(F)cc1	> 100 µM
CC(=O)OC1=C2CC[C@@H]3C(CC[C@@]4(C)C3CC[C@@H]4OC(C)=O)[C@@]2(C)CC(C#N)C1=O (stereo partly drawn)	> 100 µM
CN(CCNC(=O)c1nn(-c2ccc(Cl)cc2Cl)c2c1Cc1ccccc1-2)CCNC(=O)c1nn(-c2ccc(Cl)cc2Cl)c2c1Cc1ccccc1-2	3.26 µM
COc1ccc2nc3cc([N+](=O)[O-])ccc3c(Nc3ccc(S(=O)(=O)Nc4ncccn4)cc3)c2c1	> 100 µM
COc1c(C)c(OC)c(C(=O)CC(C)C)c(OC)c1C	> 100 µM
O=c1c(C(c2ccc([N+](=O)[O-])cc2)c2c(O)c3ccccc3n(-c3ccccc3)c2=O)c(O)c2ccccc2n1-c1ccccc1	29.1 µM
CN/N=C(\C)C(CN1CCCCC1)C(C1=C(O)c2ccccc2OC1)c1ccccc1 (stereo not drawn)	> 100 µM
O=C(Nc1cccc(C(F)(F)F)c1)c1ccc(NC2=C(Cl)C(=O)N(Cc3ccccc3)C2=O)cc1	2.85 µM
CC1(C)N=c2cc3c(cc2N1c1ccc(Cl)cc1)=Nc1ccccc1N3c1ccc(Cl)cc1	> 100 µM
CC1(O)C2(c3ccccc3)CCC[N+]1(C)CC2 (stereo not drawn)	> 100 µM
Cc1nn(C(=O)Cc2ccccc2)c2c1C(c1ccc([N+](=O)[O-])cc1)SC(N)=N2 (stereo not drawn)	> 100 µM
C#CCOC(=O)/C=C/C(=O)Oc1ccc2c(C)cc(=O)oc2c1	> 100 µM
O=C(c1ccccc1)N(CCCCNC(=O)C(F)(F)F)CCCNC(=O)C(F)(F)F	> 100 µM
CC1SC2=NC3=C(c4ccccc4C3=O)C(c3ccccc3Cl)N2C1=O (stereo not drawn)	> 100 µM
CCOC(=O)[C@@H](NC(=O)OC(C)(C)C)[C@@H](O)C(=O)OCC	> 100 µM
COc1ccc(CNCCCN2C(=O)c3ccc4c5c(ccc(c35)C2=O)C(=O)N(CCCNCc2ccc(OC)c(OC)c2OC)C4=O)c(OC)c1OC	0.187 µM
COc1ccc(C2CC(c3ccc(OC)cc3O)=NN2c2ccc(S(N)(=O)=O)cc2)cc1 (stereo not drawn)	> 100 µM
O=C1OC(c2ccc(Cl)cc2)=N/C1=C\c1ccccc1	> 100 µM
